Molecular target: Torsin-1A (Homo sapiens)
Experiment: torsin A binders from cell lysate, primary screen, small-molecule microarray, wild-type, 635/667 nm (AID 1149)
Details: COS7 hTOR1A-WT lysate, 635 nm fluorescence, higher = more signal
Output TRUE for composite z-score not less than 0.3; output FALSE otherwise.

Decide: composite z-score of COC(=O)[C@H](C)NC(=O)CCC1CC(OC(=O)NCc2ccc3c(c2)OCO3)CC2(CCCC(COC(=O)NCCC(C)C)O2)O1 (stereo not given in full) >= 0.3?
FALSE

Decide: composite z-score of CCN1C(=O)[C@H]2[C@H]3[C@H](O)[C@H](O)CC(=NOC[C@@H](O)COCc4ccco4)[C@H]3CC[C@H]2C1=O >= 0.3?
TRUE

Decide: composite z-score of CCCNC(=O)OC[C@H]1O[C@H](CCON=C2c3cc(OC)ccc3O[C@H](c3cccc(OC)c3)[C@H]2O)C=C[C@@H]1Oc1ccc(OC)cc1 >= 0.3?
TRUE

Decide: composite z-score of COCOc1ccc(Br)cc1C(=O)C=Cc1ccc2c(c1)OCO2 >= 0.3?
TRUE

Decide: composite z-score of CC(=O)OC[C@H]1O[C@H](CC=NOC[C@@H](O)[C@H]2O[C@@H]3OC(C)(C)O[C@@H]3[C@H]2O)C=C[C@@H]1OC(C)=O >= 0.3?
FALSE

Decide: composite z-score of CC(C)(C)N1C(=O)[C@H]2[C@@H]3C(=CC[C@H]2C1=O)C(=O)[C@H]1O[C@H]1[C@H]3O >= 0.3?
TRUE

Decide: composite z-score of CC(C)[C@H](NC(=O)OC(C)(C)C)[C@@H](O)CC(=O)C(C)(C)C >= 0.3?
TRUE

Decide: composite z-score of CCN1C(=O)[C@H]2[C@H]3[C@H](O)[C@H](O)CC(=NO[C@@H]4O[C@H](COC(C)=O)[C@@H](OC(C)=O)[C@H](OC(C)=O)[C@H]4OC(C)=O)[C@@H]3CC[C@H]2C1=O >= 0.3?
TRUE

Decide: composite z-score of CCc1cc2c(nc1CC)CCN(CCC(C)=NO[C@@H]1O[C@H](COC(C)=O)[C@@H](OC(C)=O)[C@H](OC(C)=O)[C@H]1OC(C)=O)C2 >= 0.3?
TRUE

Decide: composite z-score of O=C1[C@H]2[C@H]3[C@H](O)[C@H](O)CC(=NOC[C@@H](O)COCc4ccco4)[C@@H]3CC[C@H]2C(=O)N1c1cccc(Oc2ccccc2)c1 >= 0.3?
TRUE

Decide: composite z-score of O=C1[C@H]2[C@H]3[C@H](O)[C@H](O)CC(=NO[C@@H]4O[C@H](CO)[C@@H](O)[C@H](O)[C@H]4O)[C@H]3CC[C@H]2C(=O)N1C[C@@H]1CCCO1 >= 0.3?
FALSE

Decide: composite z-score of Cc1cc(C)c(-c2cc([C@H](C)ON=C[C@@H](C)[C@H](OCc3ccccc3)C(C)C)on2)c(C)c1 >= 0.3?
FALSE

Decide: composite z-score of CO[C@@H](C(C)C)[C@@H](C)C1OC(=O)CC1O (stereo not given in full) >= 0.3?
FALSE

Decide: composite z-score of C=CC[C@@H]1C=CC(ON=C(C)C)[C@@H](CO)O1 (stereo not given in full) >= 0.3?
FALSE

Decide: composite z-score of CCCNC(=O)OC[C@H]1O[C@H](CCON=C[C@@H](C)[C@H](OCc2ccccc2)C(C)C)C=C[C@@H]1Oc1ccc(OC)cc1 >= 0.3?
FALSE
